What Water solubility was measured for each of the following?

{"columns": ["COMPOUND", "REPORTED ENDPOINT", "RESULT"],
 "data": [
  ["CCCCC(CC)C(=O)OCC(COC(=O)C(CC)CCCC)OC(=O)C(CC)CCCC (centres unmarked) [PANACET 800B]", "Water solubility", "<0.05 g"],
  ["CC(C)CCCCCCCCCCCCCCCOC(=O)CC(O)C(=O)OCCCCCCCCCCCCCCCC(C)C (centres unmarked) [Diisostearyl malate]", "Water solubility", "20< g"],
  ["CCCCOC(=O)CC(CC(=O)OCCCC)(OC(C)=O)C(=O)OCCCC [Tributyl O-acetylcitrate]", "Water solubility", "<0.05 g"],
  ["CCCCC(CC)C(=O)OCC(C)(C)COC(=O)C(CC)CCCC (centres unmarked) [H-208BRS, Neopentyl glycol di(2-ethylhexanoate)]", "Water solubility", "<0.05 g"]
]}

Now look at this entry.
Give recorded Water solubility. CCCCCCCC(=O)OCC(COC(=O)CCCCCCC)OC(=O)CCCCCCC [PANACET 800]
<0.05 g

---

test: Visual evaluation of whiteness of skin contact surface of top sheet; parameters: species or system horse; key: VG (Very Good): Virtually no redness of blood remaining, and no clear delineation between areas with and without blood.; G (Good): Slight redness of blood remaining, but difficult to delineate between areas with and without blood.; F (Fair): Slight redness of blood remaining, areas with blood discernible.; P (Poor): Redness of blood completely remaining; settings: after absorbent body migration rate test
REPORTED ENDPOINT: Top sheet whiteness

Use the examples below as a reference point.
{"columns": ["COMPOUND", "REPORTED ENDPOINT", "RESULT"],
 "data": [
  ["CCCCC(CC)C(=O)OCC(COC(=O)C(CC)CCCC)(COC(=O)C(CC)CCCC)COC(=O)C(CC)CCCC (stereo not drawn) [H-408BRS, Pentaerythritol tetra(2-ethylhexanoate)]", "Top sheet whiteness", "VG"],
  ["CC(C)CCCCCCCCCCCCCCCOC(=O)CC(O)C(=O)OCCCCCCCCCCCCCCCC(C)C (stereo not drawn) [Diisostearyl malate]", "Top sheet whiteness", "F"],
  ["CCCCOC(=O)CC(CC(=O)OCCCC)(OC(C)=O)C(=O)OCCCC [Tributyl O-acetylcitrate]", "Top sheet whiteness", "VG"],
  ["CCCCCCCC(=O)OCC(COC(=O)CCCCCCC)OC(=O)CCCCCCC", "Top sheet whiteness", "VG"],
  ["CCCCCCCCCCCC(=O)OCC(O)CO (stereo not drawn) [90-L2 Lauric acid monoglyceride, lauric acid monoglyceride]", "Top sheet whiteness", "P"]
]}

Now look at this entry.
Give recorded Top sheet whiteness. "CCCCCCCCCCCCOC(=O)CCCCCCCCCCC"
VG

---

assay: Rewetting rate of sanitary napkin with top sheet coated with blood modifying agent; conditions: horse EDTA blood 3.0 g twice at 37±1° C.; agent coated on top sheet at about 5 g/m^2
Give T when the value for Rewetting rate is at least 2%. Give F when it is less.

Consider the worked cases shown below.
{"columns": ["COMPOUND", "LABEL VALUE"],
 "data": [
  ["CCCCOC(=O)CC(CC(=O)OCCCC)(OC(C)=O)C(=O)OCCCC [Tributyl O-acetylcitrate]", "T"],
  ["CCCCCCCCCCCCOC(=O)CCCCCCCCCCC", "F"],
  ["CCCCCCCCCCCC(=O)OCC(O)CO (stereo not drawn) [90-L2 Lauric acid monoglyceride, lauric acid monoglyceride]", "T"],
  ["CCCCCCCCOC(=O)CCCCC(=O)OCCCCCCCC [Dioctyl adipate]", "F"],
  ["CCCCCCCCCCCCCC(=O)OCCCCCCCCCCCC", "F"],
  ["CC(C)CCCCCCCCCCCCCCCOC(=O)CC(O)C(=O)OCCCCCCCCCCCCCCCC(C)C (stereo not drawn) [Diisostearyl malate]", "T"]
]}

# bool: Rewetting rate of "CCCCCCCC(=O)OCC(COC(=O)CCCCCCC)OC(=O)CCCCCCC" >= 2%
F

The origin of these recorded values is patent US9233185B2.
